- System: COLO 205 colon
- procedure text: NCI-60 one-dose screen, 48 h
- particulars: 10 µM
This is part of a sample that, as a whole, favours compounds with a hit. Of some 83,000 tested, about 20% had one in any assay. Activity calls are given as the source filed them. Rule for the calls: active = growth percent below 10; inactive = the rest.
Entry note: the call must match one of TRUE (active), FALSE (inactive)

Look up the recorded call for `CN(C)CCNc1cccc2sc3ccc(O)cc3c(=O)c12` in this test.
FALSE

Look up the recorded call for `O=C(NC(=S)Nc1ccccn1)c1ccccc1` in this test.
FALSE

Look up the recorded call for `COc1ccc2oc(-c3ccc(Cl)cc3)c(N3CCN(C)CC3)c2c1` in this test.
TRUE

Look up the recorded call for `Cc1c(-c2ccccc2)[nH]c2ccccc12` in this test.
FALSE

Look up the recorded call for COc1cccc(C(c2cc3c(cc2O)OCO3)N2CCOCC2)c1OC (stereo unspecified) in this test.
FALSE

Look up the recorded call for `O=C1c2cccc3cc([N+](=O)[O-])cc(c23)C(=O)N1CCN1CCCC1` in this test.
TRUE

Look up the recorded call for O=C1C(Cl)=C(Cl)C(Cl)(Cl)C(Cl)C1(Cl)Cl (stereo unspecified) in this test.
FALSE

Look up the recorded call for `N#C/C(=C/N1C(=O)/C(=C/c2ccc([N+](=O)[O-])cc2)SC1=S)c1nc2ccccc2s1` in this test.
FALSE

Look up the recorded call for `CC[C@@]1(OC(=O)CN(C)C)C(=O)OCc2c1cc1n(c2=O)Cc2cc3c(N)cccc3nc2-1` in this test.
FALSE

Look up the recorded call for `O=C1C=CC(=O)N1c1ccc(N2C(=O)C=CC2=O)cc1` in this test.
FALSE

Look up the recorded call for CC1CCC2(C(=O)O)CCC3(C)C(=CCC4C5(C)CC(O)C(O)C(C)(CO)C5C(O)CC43C)C2C1C (stereo unspecified) in this test.
FALSE

Look up the recorded call for `CN(C)c1ccc(/C=C/c2ccnc3ccccc23)cc1N` in this test.
FALSE

Look up the recorded call for `CCC(=O)Oc1ccc(/C=N/NC(N)=S)nc1` in this test.
FALSE

Look up the recorded call for `N#CC(=C1C=CC(=NO)C=C1)c1ccccc1` in this test.
FALSE

Look up the recorded call for `COc1ccc2c(c1)[nH]c1c(/C=C/c3ccccc3)nccc12` in this test.
FALSE

Look up the recorded call for `O=c1[nH]cc(/C=N\Nc2ccccc2)c(=O)[nH]1` in this test.
FALSE

---

Give growth for every item shown.
- System: HCT-15 colon
- procedure text: NCI-60 one-dose screen, 48 h (100 = growth as untreated, 0 = no growth, -100 = all killed)
- particulars: 10 µM
Compounds without any hit were thinned out: in the full panel of roughly 83,000, 20% have a hit. Active and inactive are the calls of the source. How the source made its calls: active means growth percent below 10; inactive means the rest.

Identify growth associated with the molecule `N#C/C(=C/N1C(=O)/C(=C/c2ccc([N+](=O)[O-])cc2)SC1=S)c1nc2ccccc2s1`
95.6% (inactive)

Identify growth associated with the molecule Cc1cc(C)c(N2C(=O)CC(Sc3ccccc3N)C2=O)c(C)c1 (stereo not given)
58% (inactive)

Identify growth associated with the molecule `COc1ccc(N)c2c1C(=O)c1ccccc1C2=O`
87.1% (inactive)

Identify growth associated with the molecule `Cn1ncc2cc3c(Nc4ccc(Cl)cc4)cccc3nc21`
88.1% (inactive)

Identify growth associated with the molecule `O=c1[nH]cc(/C=N\Nc2ccccc2)c(=O)[nH]1`
41.1% (inactive)

Identify growth associated with the molecule `O=C(O)c1ccccc1.[Ag]`
110% (inactive)

Identify growth associated with the molecule `CN(C)CCNc1cccc2sc3ccc(O)cc3c(=O)c12`
26.9% (inactive)

Identify growth associated with the molecule `COc1ccc(C(C#N)=C2C=CC(=NO)C=C2)cc1`
91.5% (inactive)

Identify growth associated with the molecule `O=C1c2ccccc2CCC1(Br)Br`
-57% (active)

Identify growth associated with the molecule `C=C1N(C)c2ccc(Cl)cc2C1(C)C`
106% (inactive)
